measured_target: T1, HCoV-229E NTD (17–265 aa) (human coronavirus 229E, UniProt P15423 17-265)
T1 chain: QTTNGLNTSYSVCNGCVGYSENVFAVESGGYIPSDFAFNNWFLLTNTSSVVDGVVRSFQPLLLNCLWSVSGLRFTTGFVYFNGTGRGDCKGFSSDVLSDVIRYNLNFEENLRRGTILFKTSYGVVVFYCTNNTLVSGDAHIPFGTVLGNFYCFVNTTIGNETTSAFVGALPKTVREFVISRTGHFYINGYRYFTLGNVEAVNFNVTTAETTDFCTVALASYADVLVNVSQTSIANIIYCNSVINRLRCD
measurement_description: SPR
measurement_type: Kd (nM)
Give a bare numeral; the unit nM is implied.

Observe how each entry below is paired with its result.
- binder: "Fab D12 (Fab, V domains shown) VH: EVQLVESGGGLVQPGGSLRLSCAASGFNLSSYSMHWVRQAPGKGLEWVAYISPYYSYTSYADSVKGRFTISADTSKNTAYLQMNSLRAEDTAVYYCARVWYHSYPGWVPWGSWAFDYWGQGTLVTVSS VL: DIQMTQSPSSLSASVGDRVTITCRASQSVSSAVAWYQQKPGKAPKLLIYSASSLYSGVPSRFSGSRSGTDFTLTISSLQPEDFATYYCQQAYYSPITFGQGTKVEIK"
  measurement_type: "Kd"
  scale_unit: "nM"
  recorded_measurement: 3.2
- binder: "Fab A10 (Fab, V domains shown) VH: EVQLVESGGGLVQPGGSLRLSCAASGFNISSYYMHWVRQAPGKGLEWVAYISPYSGYTYYADSVKGRFTISADTSKNTAYLQMNSLRAEDTAVYYCARAHYPYHGSYWGLDYWGQGTLVTVSS VL: DIQMTQSPSSLSASVGDRVTITCRASQSVSSAVAWYQQKPGKAPKLLIYSASSLYSGVPSRFSGSRSGTDFTLTISSLQPEDFATYYCQQAGYVPITFGQGTKVEIK"
  measurement_type: "Kd"
  scale_unit: "nM"
  recorded_measurement: 4.6

Exercise: Look up Kd: Fab F07 (Fab, V domains shown) VH: EVQLVESGGGLVQPGGSLRLSCAASGFNISYYSIHWVRQAPGKGLEWVASIYPYYGYTSYADSVKGRFTISADTSKNTAYLQMNSLRAEDTAVYYCARSSGYYHYPYSHSGLDYWGQGTLVTVSS VL: DIQMTQSPSSLSASVGDRVTITCRASQSVSSAVAWYQQKPGKAPKLLIYSASSLYSGVPSRFSGSRSGTDFTLTISSLQPEDFATYYCQQSYYWGGPITFGQGTKVEIK
Key: 3.1
